# TARGET_SYSTEM: A-type voltage-gated potassium channel KCND2 (Rattus norvegicus, UniProt Q63881)
# Sequence (Q63881 whole entry): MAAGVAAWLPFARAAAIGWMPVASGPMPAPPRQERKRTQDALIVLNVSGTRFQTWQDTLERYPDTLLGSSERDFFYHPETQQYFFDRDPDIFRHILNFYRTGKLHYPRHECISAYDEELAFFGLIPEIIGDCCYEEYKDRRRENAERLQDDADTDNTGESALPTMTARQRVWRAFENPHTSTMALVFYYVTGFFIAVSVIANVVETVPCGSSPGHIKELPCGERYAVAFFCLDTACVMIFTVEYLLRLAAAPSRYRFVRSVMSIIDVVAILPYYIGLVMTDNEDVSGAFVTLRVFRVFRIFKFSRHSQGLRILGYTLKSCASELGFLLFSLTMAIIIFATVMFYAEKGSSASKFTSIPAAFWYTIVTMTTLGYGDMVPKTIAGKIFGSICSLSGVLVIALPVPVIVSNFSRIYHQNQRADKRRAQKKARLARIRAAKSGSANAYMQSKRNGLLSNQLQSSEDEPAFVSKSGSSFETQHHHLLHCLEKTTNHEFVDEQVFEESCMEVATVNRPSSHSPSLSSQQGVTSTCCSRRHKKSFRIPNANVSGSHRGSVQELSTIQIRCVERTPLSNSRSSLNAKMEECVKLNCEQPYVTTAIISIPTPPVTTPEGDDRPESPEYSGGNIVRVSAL
# TEST: Inhibition of rat potassium channel Kv4.2 by patch-clamp method
MEASURED_ENDPOINT: IC50 (µM)
Numbers only, in µM.

> print(dat)
                                   molecule  endpoint.result
1                CCN(CC)CC(=O)Nc1c(C)cccc1C             1210
2  c1ccc2c(CCO[C@@H]3CCCC[C@H]3N3CCOCC3)cccc2c1               17
3  O=C(NCC1CCCCN1)c1cc(OCC(F)(F)F)ccc1OCC(F)(F)F (configuration not stated) [FLECAINIDE]             10.1
4  O=C1CCN([C@H]2CCCC[C@@H]2OCCc2cccc3ccccc23)C1                9
5  O=C1CCN([C@@H]2CCCC[C@H]2OCCc2cccc3ccccc23)C1 (stereo in doubt; 26)              8.9
6  Clc1ccc(CCO[C@@H]2CCCC[C@H]2N2CCOCC2)cc1Cl               11

With those in mind, consider the next molecule.
Bench note, A-type voltage-gated potassium channel KCND2 (Rattus norvegicus, UniProt Q63881): entry O=C1CCN([C@@H]2CCCC[C@H]2OCCc2cccc3ccccc23)C1 (stereo in doubt; 40) , its IC50 = 11

----------
# TEST: Volume of distribution at steady state in Wistar rat at 12 mg/kg. iv
# Assay type: ADME, organism-based
# Set-up: dose 12 mg/kg, route intravenous
# CONDITION_INFO: in vivo, read-out: Vdss
MEASURED_ENDPOINT: Vd (L/kg)
Numbers only, in L/kg.

> print(dat)
                                        mol  endpoint.result
1  Clc1ccc(CCO[C@@H]2CCCC[C@H]2N2CCOCC2)cc1Cl               19

With those in mind, consider the next compound.
Summary for this compound, "c1ccc2c(CCO[C@@H]3CCCC[C@H]3N3CCOCC3)cccc2c1" : Vd is 29

Each recorded value in this set is attributed to ChEMBL document CHEMBL1143695.
